- tested.on: hCA I (Homo sapiens)
- Sequence (P00915 whole entry): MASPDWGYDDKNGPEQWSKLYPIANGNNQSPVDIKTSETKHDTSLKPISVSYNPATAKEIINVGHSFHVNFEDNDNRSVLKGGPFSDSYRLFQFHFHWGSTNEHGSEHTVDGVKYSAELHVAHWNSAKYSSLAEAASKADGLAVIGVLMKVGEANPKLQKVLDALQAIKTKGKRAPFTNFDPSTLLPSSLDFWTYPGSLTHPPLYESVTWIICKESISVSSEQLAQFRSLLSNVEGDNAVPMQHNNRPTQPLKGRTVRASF
pKi: −log10 of the molar value.
value.type: pKi

QUERY: Consider the compound shown here: `Cc1ccc(C(C)C)c(O)c1` What is its recorded pKi?
RESULT: < 4.00

----------
Entries with their measured Ki, system SmuCA (Streptococcus mutans, UniProt Q8DVY1):

QUERY: Report Ki for `Cc1ccc(C(C)C)c(O)c1` tested on SmuCA (Streptococcus mutans, UniProt Q8DVY1).
Sequence (Q8DVY1 1-166): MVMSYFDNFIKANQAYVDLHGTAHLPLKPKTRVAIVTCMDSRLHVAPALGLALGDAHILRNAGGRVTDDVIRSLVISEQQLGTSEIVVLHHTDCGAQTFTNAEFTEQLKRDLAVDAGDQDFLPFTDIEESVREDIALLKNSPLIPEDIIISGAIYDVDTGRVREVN
RESULT: 84.9 µM

QUERY: Identify the measured Ki of `Cc1ccc(C(C)C)cc1O` for SmuCA (Streptococcus mutans, UniProt Q8DVY1).
RESULT: 86.6 µM

----------
Target sequence: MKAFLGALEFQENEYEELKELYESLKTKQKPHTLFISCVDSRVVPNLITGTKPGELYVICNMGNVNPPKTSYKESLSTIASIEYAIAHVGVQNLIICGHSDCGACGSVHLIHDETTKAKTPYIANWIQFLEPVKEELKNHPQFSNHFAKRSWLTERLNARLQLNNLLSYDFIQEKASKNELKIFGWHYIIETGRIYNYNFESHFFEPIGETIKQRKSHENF
I'd be grateful if you could share measured pKi for these entries.
pKi here is simply -log10 of the concentration when that concentration is written in mol/L.

QUERY: Name the recorded pKi for `Cc1ccc(C(C)C)cc1O` .
RESULT: 4.88

QUERY: Give the measured pKi of `Cc1ccc(C(C)C)c(O)c1` .
RESULT: 5.47
